Assay: qHTS assay to identify small molecule agonists of the endoplasmic reticulum stress response signaling pathway (AID 1159516); note: % is set by controls: 0 for no effect and ±100 for the full control effect
Conditions: ESRE-bla HeLa, ER stress beta-lactamase reporter, 5 h; series mostly up to 61 µM
Inconclusive results are not listed. Active and inactive are the calls of the source. Calls come from the whole dose curve; as a rule, active = well fitted activation curve with a large enough effect in the signal ratio in the repeat runs (not every such curve was filed as active); inconclusive = weak or mixed curves, or effect the other way; inactive = flat fitted curve, though single readings scatter; the % refers to the signal ratio.

[
  {
    "substance.smiles": "OC[C@H]1O[C@@H]2O[C@H]3[C@H](O)[C@@H](O)[C@@H](O[C@H]4[C@H](O)[C@@H](O)[C@@H](O[C@H]5[C@H](O)[C@@H](O)[C@@H](O[C@H]6[C@H](O)[C@@H](O)[C@@H](O[C@H]7[C@H](O)[C@@H](O)[C@@H](O[C@H]8[C@H](O)[C@@H](O)[C@@H](O[C@H]1[C@H](O)[C@H]2O)O[C@@H]8CO)O[C@@H]7CO)O[C@@H]6CO)O[C@@H]5CO)O[C@@H]4CO)O[C@@H]3CO",
    "outcome": "inactive"
  },
  {
    "substance.smiles": "C[Si](C)(C)O[Si](C)(C)C",
    "outcome": "inactive"
  }
]

====

Assay: qHTS assay to identify small molecule agonists of the estrogen related receptor (ERR) signaling pathway from Tox21 library (AID 1224849); note: % is set by controls: 0 for no effect and ±100 for the full control effect; nearly all actives have a fitted effect of over 15% in size
Settings: ERR reporter cell line, ONE-Glo luciferase, 18 h; at 42.5 µM (top of the series)
Tag: Satisfied if measured activity change, positive = activation is not below -30%, Not satisfied if it is.

Reference set, count: 8
[
  {
    "compound": "CCOC(=O)C(C#N)=C(c1ccccc1)c1ccccc1",
    "category": "Satisfied"
  },
  {
    "compound": "O=C1OC2(c3cc(Br)c(O)c(Br)c3Oc3c2cc(Br)c(O)c3Br)c2c(Cl)c(Cl)c(Cl)c(Cl)c21",
    "category": "Satisfied"
  },
  {
    "compound": "C[C@]12CC[C@H]3[C@@H](CCC4=CC(=O)CC[C@@]43C)[C@@H]1CC[C@@H]2C(=O)CO",
    "category": "Not satisfied"
  },
  {
    "compound": "C#C[C@]1(O)CC[C@H]2[C@@H]3CCC4=Cc5oncc5C[C@]4(C)[C@H]3CC[C@@]21C",
    "category": "Not satisfied"
  },
  {
    "compound": "O=C=Nc1ccc(Cc2ccc(N=C=O)cc2)cc1",
    "category": "Satisfied"
  },
  {
    "compound": "Cc1ccc(C(=O)c2cc(O)c(O)c([N+](=O)[O-])c2)cc1",
    "category": "Not satisfied"
  },
  {
    "compound": "O=C1c2cccc(O)c2C(=O)c2c(O)cccc21",
    "category": "Satisfied"
  },
  {
    "compound": "CC(C(=O)O)c1cccc(C(=O)c2ccccc2)c1 (stereo not given)",
    "category": "Satisfied"
  }
]

Moving on to another compound below.
Determine whether this compound has activity change, positive = activation no lower than -30%: `C#C[C@]1(O)CC[C@H]2[C@@H]3CCc4cc(OC)ccc4[C@H]3CC[C@@]21C`
Satisfied

====

Biological target: Cytochrome P450 1A2 (Homo sapiens) (UniProt P05177)
Sequence (P05177 whole entry, looked up): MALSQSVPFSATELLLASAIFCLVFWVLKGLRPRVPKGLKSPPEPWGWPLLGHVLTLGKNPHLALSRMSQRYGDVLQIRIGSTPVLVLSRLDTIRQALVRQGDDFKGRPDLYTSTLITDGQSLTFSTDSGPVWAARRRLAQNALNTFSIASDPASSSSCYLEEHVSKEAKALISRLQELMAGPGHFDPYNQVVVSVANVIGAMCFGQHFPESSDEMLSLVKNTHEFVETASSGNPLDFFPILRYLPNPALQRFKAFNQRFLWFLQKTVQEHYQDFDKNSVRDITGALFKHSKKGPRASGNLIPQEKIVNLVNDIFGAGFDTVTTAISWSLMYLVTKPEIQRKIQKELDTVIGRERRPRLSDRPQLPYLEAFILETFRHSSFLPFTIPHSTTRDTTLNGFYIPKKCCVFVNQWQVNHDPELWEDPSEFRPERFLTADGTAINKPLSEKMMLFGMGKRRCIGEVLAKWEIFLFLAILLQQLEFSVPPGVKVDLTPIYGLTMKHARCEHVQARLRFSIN
Assay: Cytochrome P450 Family 1 Subfamily A Member 2 (CYP1A2) small molecule antagonists: luciferase reporter qHTS assay (AID 1671199); note: nearly all actives have a fitted effect of over 50% in size
Settings: P450-Glo CYP1A2 enzyme, luciferin luminescence, 1 h; series mostly up to 115 µM
Inconclusive results are not listed. Calls of active or inactive are those of the source. Calls follow the shape of the dose curve; as a rule, active = well fitted inhibition curve with a large enough effect in the repeat runs; inconclusive = weak or mixed curves; inactive = no such curve, though single readings can be large or run the other way.
Thanks in advance; please answer with one of these: 1 for active, -1 for inactive

Here's what some known entries look like.
[
  {
    "compound": "Cc1cccc([N+](=O)[O-])c1C",
    "category": -1
  },
  {
    "compound": "CC(C)OC=O",
    "category": -1
  },
  {
    "compound": "Cc1ccc2c(n1)Oc1ccc(C(C)C(=O)OCC(=O)N(C)C)cc1C2 (centres undefined)",
    "category": -1
  },
  {
    "compound": "C=C(C)C1CC=C(C)CC1 (centres undefined)",
    "category": -1
  },
  {
    "compound": "CN(C)CCC=C1c2ccccc2CCc2ccccc21",
    "category": -1
  },
  {
    "compound": "COC(C)COC(C)COC(C)CO (centres undefined)",
    "category": -1
  },
  {
    "compound": "COC(=O)c1ccccc1",
    "category": -1
  },
  {
    "compound": "CCCC(=O)O",
    "category": -1
  },
  {
    "compound": "CCCCOCCOCCO",
    "category": -1
  },
  {
    "compound": "O=C=Nc1ccc(Cc2ccc(N=C=O)cc2)cc1",
    "category": -1
  }
]

How was CCCCC(CC)COCC1CO1 (centres undefined) classified in this test?
-1

Please let me know the test result on file for `O=S(=O)(O)c1ccc(O)cc1` .
-1

For `Cn1cnc([N+](=O)[O-])c1Sc1ncnc2nc[nH]c12` , which call appears in the assay record?
-1

Hey, what did the test say about c1cc(N(CC2CO2)CC2CO2)ccc1OCC1CO1 (centres undefined) ?
1

Which result was noted for this compound in the test: `NC=O`
-1

Please let me know the test result on file for `Cc1ccc(C(=O)c2cc(O)c(O)c([N+](=O)[O-])c2)cc1` .
-1

Given `OC1CCCCCCCCCCC1` , state the outcome it received in this test.
1

These entries and their values trace back to PubChem BioAssay (Tox21).
